target: ITCH (Homo sapiens, UniProt Q96J02); construct: ITCH Q96J02 - GST full length; host or cells: E. coli BL21; assay: MALDI-TOF E2/E3 ligase assay (mono-ubiquitin consumption), UBE1/UBE2D1/ITCH; format: biochemical; details: UBE1/UBE2D1/ITCH; compounds pre-incubated 30 min, then ubiquitin 30 or 40 min; four-parameter fit; read-out: IC50 against ITCH
Sequence (Q96J02 whole entry): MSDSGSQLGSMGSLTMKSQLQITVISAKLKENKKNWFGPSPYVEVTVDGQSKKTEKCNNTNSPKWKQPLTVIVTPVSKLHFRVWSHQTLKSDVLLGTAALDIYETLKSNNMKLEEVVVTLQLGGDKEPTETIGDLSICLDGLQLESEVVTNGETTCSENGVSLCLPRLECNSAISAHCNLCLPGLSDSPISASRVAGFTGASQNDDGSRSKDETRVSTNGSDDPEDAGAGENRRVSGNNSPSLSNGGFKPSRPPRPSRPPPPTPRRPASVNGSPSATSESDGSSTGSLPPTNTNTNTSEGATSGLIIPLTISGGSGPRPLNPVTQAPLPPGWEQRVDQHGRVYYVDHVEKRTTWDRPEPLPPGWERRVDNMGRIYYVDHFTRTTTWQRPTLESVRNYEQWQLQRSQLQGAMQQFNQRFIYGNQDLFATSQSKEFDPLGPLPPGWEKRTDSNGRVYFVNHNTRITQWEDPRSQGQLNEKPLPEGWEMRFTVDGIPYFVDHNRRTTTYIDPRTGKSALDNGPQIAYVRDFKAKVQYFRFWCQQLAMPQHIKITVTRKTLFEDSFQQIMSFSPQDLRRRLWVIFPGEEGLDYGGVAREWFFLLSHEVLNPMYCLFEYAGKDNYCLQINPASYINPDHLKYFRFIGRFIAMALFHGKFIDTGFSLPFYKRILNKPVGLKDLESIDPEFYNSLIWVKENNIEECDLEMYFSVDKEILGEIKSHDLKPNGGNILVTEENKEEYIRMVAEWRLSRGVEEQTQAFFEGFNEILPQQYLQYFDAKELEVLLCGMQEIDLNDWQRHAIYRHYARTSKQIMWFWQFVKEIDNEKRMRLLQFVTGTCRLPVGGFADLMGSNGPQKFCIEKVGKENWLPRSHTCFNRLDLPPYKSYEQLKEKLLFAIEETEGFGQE
Recorded IC50 by entry
Your answer should be a number followed by the unit of measure.

N#CSc1cc(SC#N)c(N)nc1N = 0.4 µM

Exam item: Please report the measured IC50 for Cc1ccc(S(=O)(=O)/C=C/C#N)cc1
Marked response: 25.9 µM

Exam item: Please report the measured IC50 for CCOC(=O)c1ccc(N2NC(=O)/C(=C/c3ccc([N+](=O)[O-])o3)C2=O)cc1
Marked response: 11.3 µM
